A collection of compounds and their measured IC50
MEASUREMENT_TARGET: Steroid 17-alpha-hydroxylase/17,20 lyase (Homo sapiens)
Sequence (P05093 whole entry): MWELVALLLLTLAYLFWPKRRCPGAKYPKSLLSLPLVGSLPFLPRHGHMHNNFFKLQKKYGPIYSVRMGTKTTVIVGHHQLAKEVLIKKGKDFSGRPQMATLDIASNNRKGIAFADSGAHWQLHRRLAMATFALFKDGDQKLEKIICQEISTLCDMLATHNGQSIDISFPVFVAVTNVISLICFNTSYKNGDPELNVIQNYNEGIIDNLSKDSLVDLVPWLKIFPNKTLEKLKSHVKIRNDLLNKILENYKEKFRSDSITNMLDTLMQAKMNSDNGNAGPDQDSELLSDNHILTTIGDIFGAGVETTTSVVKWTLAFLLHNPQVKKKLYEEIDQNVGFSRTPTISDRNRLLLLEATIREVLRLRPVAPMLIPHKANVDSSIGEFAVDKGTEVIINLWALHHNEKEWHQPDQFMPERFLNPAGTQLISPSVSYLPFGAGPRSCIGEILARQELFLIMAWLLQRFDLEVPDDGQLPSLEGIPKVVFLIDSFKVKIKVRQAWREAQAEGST
Assay type: functional

Nc1ccc(C23CC2C(=O)N(CC2CCCCC2)C3=O)cc1 (configuration not stated); > 330 µM

Kindly state the measured IC50 obtained for Nc1ccc(C23CC(C2)C(=O)N(C2CCCCC2)C3=O)cc1 with Steroid 17-alpha-hydroxylase/17,20 lyase (Homo sapiens). 140 µM

----------
MEASUREMENT_TARGET: Cytochrome P450 11B2, mitochondrial (Rattus norvegicus, UniProt P30099)
Sequence (P30099 whole entry): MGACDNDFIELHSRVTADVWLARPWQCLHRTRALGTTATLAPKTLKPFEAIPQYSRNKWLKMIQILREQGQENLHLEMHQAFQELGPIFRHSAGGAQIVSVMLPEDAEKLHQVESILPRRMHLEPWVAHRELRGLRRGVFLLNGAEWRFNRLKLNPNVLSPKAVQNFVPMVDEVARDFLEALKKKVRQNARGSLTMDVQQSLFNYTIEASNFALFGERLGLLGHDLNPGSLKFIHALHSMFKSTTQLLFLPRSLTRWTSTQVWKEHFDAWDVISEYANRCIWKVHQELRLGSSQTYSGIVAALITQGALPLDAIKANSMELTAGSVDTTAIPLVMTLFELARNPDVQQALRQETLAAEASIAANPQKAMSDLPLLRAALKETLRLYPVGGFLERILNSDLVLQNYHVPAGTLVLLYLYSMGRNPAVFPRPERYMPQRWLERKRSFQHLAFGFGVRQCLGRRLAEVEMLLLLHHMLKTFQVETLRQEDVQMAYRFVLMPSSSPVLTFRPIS
MEASUREMENT_LABEL: pIC50
Scale: pIC50 equals -log10([C]), with [C] in mol/L.

Sample Nc1ccc(C23CC(C2)C(=O)N(C2CCCCC2)C3=O)cc1 — what was its pIC50? 3.85
